Note to self: these compounds have pKi reported for Neurotensin receptor type 2 (Homo sapiens, UniProt O95665) in various publications.
By convention, pKi is the negative base-10 log of a molar concentration.

Recorded pKi, per entry:
compound	quantity.kind	recorded.measurement
CC(C)C[C@H](NC(=O)C1(NC(=O)[C@@H]2CCCN2C(=O)[C@H](CCCNC(=N)N)NC(=O)[C@@H](N)CCCNC(=N)N)CCOC1c1ccc(Br)cc1)C(=O)O (stereo in doubt; 10-1)	pKi	4.31
CC[C@H](C)[C@H](NC(=O)[C@H](Cc1ccc(O)cc1)NC(=O)[C@@H]1CCCN1C(=O)[C@H](CCCCN)NC(=O)[C@@H](N)CCCCN)C(=O)N[C@@H](CC(C)C)C(=O)O	pKi	8.21

Lookup: Bench note: what pKi did COc1cccc(OC)c1-c1cc(C(=O)NC2(C(=O)O)C3CC4CC(C3)CC2C4)nn1-c1ccc(C(=O)N(C)CCCN(C)C)cc1C(C)C (stereo not drawn) show?
Found: 7.13

Lookup: Please give the result for CC[C@H](C)[C@H](NC(=O)[C@H](Cc1ccc(Br)cc1)NC(=O)[C@@H]1CCCN1C(=O)[C@H](CCCCN)NC(=O)[C@@H](N)CCCCN)C(=O)N[C@@H](CC(C)C)C(=O)O too.
Found: 7.16

----------
Note to self: these compounds have pKi reported for UniProtKB O95665 in various publications.
By convention, pKi is the negative base-10 log of a molar concentration.

compound	recorded.measurement
CC(C)C[C@H](NC(=O)[C@@H](CCSSCCN)NC(=O)[C@H](Cc1ccc(O)cc1)NC(=O)[C@@H]1CCCN1C(=O)[C@H](CCCNC(=N)N)NC(=O)[C@@H](N)CCCNC(=N)N)C(=O)O	7.77

Lookup: Bench note: what pKi did CC[C@H](C)[C@H](NC(=O)[C@H](Cc1ccc(O)cc1)NC(=O)[C@@H]1CCCN1C(=O)[C@H](CCCNC(=N)N)NC(=O)[C@@H](N)CCCNC(=N)N)C(=O)N[C@@H](CC(C)C)C(=O)N[C@H](CCSSCCN)C(=O)O show?
Found: 8.28

Lookup: Please give the result for CC[C@H](C)[C@H](NC(=O)CN(CCc1ccccn1)C(=O)[C@@H]1CCCN1C(=O)[C@H](CCCNC(=N)N)NC(=O)[C@@H](N)CCCNC(=N)N)C(=O)N[C@@H](CC(C)C)C(=O)O too.
Found: 7.00

Lookup: Please give the result for CC[C@H](C)[C@H](NC(=O)[C@]1(NC(=O)[C@@H]2CCCN2C(=O)[C@H](CCCNC(=N)N)NC(=O)[C@@H](N)CCCNC(=N)N)CCO[C@@H]1c1ccc(O)cc1)C(=O)N[C@@H](CC(C)C)C(=O)O too.
Found: 7.92

Lookup: Please give the result for CC[C@H](C)[C@H](NC(=O)CN(CCc1ccccc1)C(=O)[C@@H]1CCCN1C(=O)[C@H](CCCN=C(N)N)NC(=O)[C@@H](N)CCCN=C(N)N)C(=O)N[C@@H](CC(C)C)C(=O)O too.
Found: 7.70

Lookup: Please give the result for CC[C@H](C)[C@H](NC(=O)[C@H](Cc1ccc(O)cc1)NC(=O)[C@@H]1CCCN1C(=O)[C@H](CCCCN)NC(=O)CNCCCCN)C(=O)N[C@@H](CC(C)C)C(=O)O too.
Found: 9.13

Lookup: Please give the result for CC(C)C[C@H](NC(=O)C1(NC(=O)[C@@H]2CCCN2C(=O)[C@H](CCCCN)NC(=O)[C@@H](N)CCCCN)CCOC1c1ccc(Br)cc1)C(=O)O (stereo in doubt; 7-2) too.
Found: 5.69

Lookup: Please give the result for CC[C@H](C)[C@H](NC(=O)CN(CCc1ccc(OC)cc1)C(=O)[C@@H]1CCCN1C(=O)[C@H](CCCN=C(N)N)NC(=O)[C@@H](N)CCCN=C(N)N)C(=O)N[C@@H](CC(C)C)C(=O)O too.
Found: 7.42

Lookup: Please give the result for CC[C@H](C)[C@H](NC(=O)CN(CCc1ccc(O)cc1)C(=O)[C@@H]1CCCN1C(=O)[C@H](CCCNC(=N)N)NC(=O)[C@@H](N)CCCNC(=N)N)C(=O)N[C@@H](CC(C)C)C(=O)O too.
Found: 8.06

Lookup: Please give the result for CC(C)C[C@H](NC(=O)C1(NC(=O)[C@@H]2CCCN2C(=O)[C@H](CCCNC(=N)N)NC(=O)[C@@H](N)CCCCN)CCOC1c1ccc(Br)cc1)C(=O)O (stereo in doubt; 8-2) too.
Found: 4.96

Lookup: Please give the result for CC(C)C[C@H](NC(=O)[C@H](CSSCCN)NC(=O)[C@H](Cc1ccc(O)cc1)NC(=O)[C@@H]1CCCN1C(=O)[C@H](CCCNC(=N)N)NC(=O)[C@@H](N)CCCNC(=N)N)C(=O)O too.
Found: 7.26

Lookup: Please give the result for COc1cccc(OC)c1-c1cc(C(=O)NC2(C(=O)O)C3CC4CC(C3)CC2C4)nn1-c1ccc(C(=O)N(C)CCCN(C)CCCCc2cn([C@@H]3O[C@H](CO)[C@@H](O)[C@H](O)[C@H]3F)nn2)cc1C(C)C (some centres undefined) too.
Found: 7.16

Lookup: Please give the result for CC(C)C[C@H](NC(=O)CNC(=O)C1(NC(=O)[C@@H]2CCCN2C(=O)[C@H](CCCCN)NC(=O)[C@@H](N)CCCCN)CCOC1c1ccc(Br)cc1)C(=O)O (stereo in doubt; 16-1) too.
Found: 6.30

Lookup: Please give the result for CC[C@H](C)[C@H](NC(=O)[C@]1(NC(=O)[C@@H]2CCCN2C(=O)[C@H](CCCNC(=N)N)NC(=O)[C@@H](N)CCCNC(=N)N)CCO[C@@H]1c1ccc(Br)cc1)C(=O)N[C@@H](CC(C)C)C(=O)O too.
Found: 6.21
